Assay: In vivo pharmacokinetics in plasma after oral gavage (PO) in male CD-1 mice
Settings: 5 mg/kg PO, Table 4
Procedure: The purpose of this study is to determine the pharmacokinetics of the tested compounds in plasma, following oral gavage administration (PO) to male CD-1 mice. Animal Husbandry: Animals were group housed during acclimation and the study. […] Temperature and relative humidity were monitored daily. […] Dose Administration: the dose formulations were administered via oral gavage per facility SOPs. The dose volume were determined by the animals' body weight collected on the morning of dosing day […]
EXPERIMENTAL_READOUT: Cmin at 5 mg/kg PO (nM)

# count of solved cases: 2
MOLECULE	DISPLAY_UNIT	Cmin at 5 mg/kg PO
CC(C)(c1ccc(OCc2ccnc(NS(C)(=O)=O)n2)cc1)c1cc(Cl)c(OCCCl)c(Cl)c1	nM	2420
CC(C)(c1ccc(OCc2ccnc(NS(C)(=O)=O)n2)cc1)c1cc(Cl)c(OCCCl)c(C#N)c1	nM	680

a: CNC(=O)c1ccc(N2C(=S)N(c3ccc(C#N)c(C(F)(F)F)c3)C(=O)C2(C)C)cc1F [Enzalutamide, enzalutamide, reference compound]
b: CC(C)(c1ccc(OCc2ocnc2S(C)(=O)=O)cc1)c1cc(Cl)c(OCCCl)c(Cl)c1
Prompt: // compare measured Cmin at 5 mg/kg PO between a and b ; output the lower one Label of pick, please.
Response: b

* * *

Test: In vivo pharmacokinetics in plasma after oral gavage (PO) in male CD-1 mice
Conditions: single PO dose 5 mg/kg, male CD-1 mice, plasma
Protocol: The purpose of this study is to determine the pharmacokinetics of the tested compounds in plasma, following oral gavage administration (PO) to male CD-1 mice. Animal Husbandry: Animals were group housed during acclimation and the study. […] Temperature and relative humidity were monitored daily. […] Dose Administration: the dose formulations were administered via oral gavage per facility SOPs. The dose volume were determined by the animals' body weight collected on the morning of dosing day […]
EXPERIMENTAL_READOUT: AUC/D (kg·ng·h/mL/mg)

# count of solved cases: 3
COMPOUND	DISPLAY_UNIT	AUC/D
CC(C)(c1ccc(OCc2nc(S(C)(=O)=O)cs2)cc1)c1cc(Cl)c(OCCCl)c(C#N)c1	kg·ng·h/mL/mg	8407.6
CC(C)(c1ccc(OCc2ocnc2S(C)(=O)=O)cc1)c1cc(Cl)c(OCCCl)c(Cl)c1	kg·ng·h/mL/mg	1661.9
CC(C)(c1ccc(OCc2ncc(S(C)(=O)=O)s2)cc1)c1cc(Cl)c(OCCCl)c(C#N)c1	kg·ng·h/mL/mg	6575.7

P: CC(Oc1ccc(C(C)(C)c2cc(Cl)c(OCCCl)c(Cl)c2)cc1)c1ocnc1S(C)(=O)=O (stereo not shown)
Q: Cc1cnc(NS(C)(=O)=O)nc1COc1ccc(C(C)(C)c2cc(Cl)c(OCCCl)c(C#N)c2)cc1
R: CCS(=O)(=O)Nc1nc(COc2ccc(C(C)(C)c3cc(Cl)c(OCCCl)c(C#N)c3)cc2)co1
S: CC(C)(c1ccc(OCc2ccnc(NS(C)(=O)=O)n2)cc1)c1cc(Cl)c(OCCCl)c(Cl)c1
Prompt: Ascending by AUC/D, please. # the answer lists labels in the order requested
Response: P, Q, R, S
(P: 483.0 kg·ng·h/mL/mg, Q: 1360.0 kg·ng·h/mL/mg, R: 4909.4 kg·ng·h/mL/mg, S: 14542.3 kg·ng·h/mL/mg)
